System: SARS-COV-2
Assay: microbe, parasite or virus in culture
Conditions: Severe acute respiratory syndrome coronavirus 2, Vero C1008, 24 h
test.readout: IC50 (µM)
Give the quantity in µM, number only.

Tell me the measured IC50 of Cc1cccc(C)c1OCC(=O)N[C@@H](Cc1ccccc1)[C@@H](O)C[C@H](Cc1ccccc1)NC(=O)[C@H](C(C)C)N1CCCNC1=O , please.
15.5

Tell me the measured IC50 of CCN(CC)CCCC(C)Nc1ccnc2cc(Cl)ccc12 (stereo not drawn) , please.
8.25

Tell me the measured IC50 of CCC(CC)COC(=O)[C@H](C)N[P@](=O)(OC[C@H]1O[C@@](C#N)(c2ccc3c(N)ncnn23)[C@H](O)[C@@H]1O)Oc1ccccc1 , please.
10.9

---

Assay: in vitro
Conditions: African green monkey
test.readout: CC50 at 24 h

Tell me the measured CC50 at 24 h of Cc1cccc(C)c1OCC(=O)N[C@@H](Cc1ccccc1)[C@@H](O)C[C@H](Cc1ccccc1)NC(=O)[C@H](C(C)C)N1CCCNC1=O [Lopinavir, lopinavir] , please.
> 50 µM

---

Assay: in vitro
Conditions: African green monkey
test.readout: CC50

Tell me the measured CC50 of CCC(CC)COC(=O)[C@H](C)N[P@](=O)(OC[C@H]1O[C@@](C#N)(c2ccc3c(N)ncnn23)[C@H](O)[C@@H]1O)Oc1ccccc1 [Remdesivir, remdesivir] , please.
> 50 µM
